- TARGET_UNDER_TEST: EGFR Del19/C797S (Homo sapiens, UniProt P00533, C797S/DEL746-750)
- Sequence (P00533 with tags, fused parts or gaps DEL746-750/C797S): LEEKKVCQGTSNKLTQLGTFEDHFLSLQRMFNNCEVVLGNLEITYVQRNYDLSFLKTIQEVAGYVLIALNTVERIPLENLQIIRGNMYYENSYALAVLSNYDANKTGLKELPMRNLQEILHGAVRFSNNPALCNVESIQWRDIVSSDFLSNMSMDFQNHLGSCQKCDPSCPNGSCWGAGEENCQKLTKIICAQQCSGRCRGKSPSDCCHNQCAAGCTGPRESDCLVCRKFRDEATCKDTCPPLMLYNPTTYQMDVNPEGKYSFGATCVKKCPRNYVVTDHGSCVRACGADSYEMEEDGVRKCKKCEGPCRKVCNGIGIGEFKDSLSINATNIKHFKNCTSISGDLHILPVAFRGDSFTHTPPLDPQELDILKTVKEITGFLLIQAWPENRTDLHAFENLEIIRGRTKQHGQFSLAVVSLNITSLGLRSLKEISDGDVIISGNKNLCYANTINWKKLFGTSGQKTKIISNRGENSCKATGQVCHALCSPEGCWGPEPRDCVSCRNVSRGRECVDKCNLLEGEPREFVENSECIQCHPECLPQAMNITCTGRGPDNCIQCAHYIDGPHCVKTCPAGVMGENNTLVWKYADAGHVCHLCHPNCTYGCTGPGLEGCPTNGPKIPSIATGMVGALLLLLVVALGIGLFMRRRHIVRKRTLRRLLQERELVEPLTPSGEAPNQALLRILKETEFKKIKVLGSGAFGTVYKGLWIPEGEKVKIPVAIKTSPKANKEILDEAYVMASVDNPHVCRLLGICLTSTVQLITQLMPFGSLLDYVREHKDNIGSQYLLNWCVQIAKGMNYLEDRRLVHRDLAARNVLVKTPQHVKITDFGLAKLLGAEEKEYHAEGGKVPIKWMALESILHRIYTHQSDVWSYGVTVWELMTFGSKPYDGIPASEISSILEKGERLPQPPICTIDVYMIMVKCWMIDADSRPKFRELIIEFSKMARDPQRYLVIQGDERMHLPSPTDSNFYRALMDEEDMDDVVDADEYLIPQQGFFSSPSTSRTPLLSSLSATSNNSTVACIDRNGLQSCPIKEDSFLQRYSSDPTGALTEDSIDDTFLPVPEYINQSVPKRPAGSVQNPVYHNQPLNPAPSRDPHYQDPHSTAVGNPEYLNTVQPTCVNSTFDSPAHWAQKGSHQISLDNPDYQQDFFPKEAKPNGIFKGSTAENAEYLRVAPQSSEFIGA
- ASSAY_PROTOCOL: Biochemical EGFR kinase inhibition assay (Lance Ultra TR-FRET), double mutant del19/C797S
- MEASUREMENT_SETUP: ATP at Km; read-out: IC50 Del19/C797S (nM), Km ATP
ASSAY_METRIC: IC50 (nM)

Before answering, review these 2 worked examples.
# COMPOUND, IC50 [nM]
measured = [
    ("CC1(CO)CCN(c2cc(Nc3ccnc(-c4cnn(S(=O)(=O)C5CC5)c4)n3)ncc2C#CC2(O)CCOCC2)CC1 [Example 195]", 2.4),
    ("O=S(=O)(C1CC1)n1cc(-c2nccc(Nc3cc(N4CCC(C5(O)CC5)CC4)c(C#Cc4cnn(C(F)(F)F)c4)cn3)n2)cn1 [Example 330]", 55.5),
]

(I) O=S(=O)(C1CC1)n1cc(-c2nccc(Nc3cc(N[C@H]4CCC[C@H](O)C4)c(C#Cc4ccc(CN5CCOCC5)cc4)cn3)n2)cn1 [Example 161]
(II) CC1(CO)CCN(c2cc(Nc3ccnc(-c4cnn(S(=O)(=O)C5CC5)c4)n3)ncc2C#Cc2nc(C(F)(F)F)cs2)CC1 [Example 291]
(III) CC(C)Nc1cc(Nc2ccnc(-c3cnn(S(=O)(=O)C4CC4)c3)n2)ncc1C#CCN1CCCC1 [Example 203]
Task item: Sort the 3 compounds by IC50; largest first, smallest last. Dear reader, please state the labels in the requested order.
Reply: III, I, II

(1) CN1CCC(C#Cc2cnc(Nc3ccnc(-c4cnn(S(=O)(=O)C5CC5)c4)n3)cc2NC2CCC(O)CC2)C1 (stereo not shown) [Example 181]
(2) CN1CCN(Cc2ccc(C#Cc3cnc(Nc4ccnc(-c5cnn(S(=O)(=O)C6CC6)c5)n4)cc3N3CCC(C)(CO)CC3)cn2)CC1 [Example 279]
Task item: Higher IC50: 1 or 2 ? Choose, then provide that item's label.
Reply: 1
(1: 0.7 nM, 2: 0.2 nM)

---

- TARGET_UNDER_TEST: EGFR Del19/T790M/C797S (Homo sapiens, UniProt P00533, C797S/DEL746-750/T790M)
- Sequence (P00533 with tags, fused parts or gaps DEL746-750/T790M/C797S): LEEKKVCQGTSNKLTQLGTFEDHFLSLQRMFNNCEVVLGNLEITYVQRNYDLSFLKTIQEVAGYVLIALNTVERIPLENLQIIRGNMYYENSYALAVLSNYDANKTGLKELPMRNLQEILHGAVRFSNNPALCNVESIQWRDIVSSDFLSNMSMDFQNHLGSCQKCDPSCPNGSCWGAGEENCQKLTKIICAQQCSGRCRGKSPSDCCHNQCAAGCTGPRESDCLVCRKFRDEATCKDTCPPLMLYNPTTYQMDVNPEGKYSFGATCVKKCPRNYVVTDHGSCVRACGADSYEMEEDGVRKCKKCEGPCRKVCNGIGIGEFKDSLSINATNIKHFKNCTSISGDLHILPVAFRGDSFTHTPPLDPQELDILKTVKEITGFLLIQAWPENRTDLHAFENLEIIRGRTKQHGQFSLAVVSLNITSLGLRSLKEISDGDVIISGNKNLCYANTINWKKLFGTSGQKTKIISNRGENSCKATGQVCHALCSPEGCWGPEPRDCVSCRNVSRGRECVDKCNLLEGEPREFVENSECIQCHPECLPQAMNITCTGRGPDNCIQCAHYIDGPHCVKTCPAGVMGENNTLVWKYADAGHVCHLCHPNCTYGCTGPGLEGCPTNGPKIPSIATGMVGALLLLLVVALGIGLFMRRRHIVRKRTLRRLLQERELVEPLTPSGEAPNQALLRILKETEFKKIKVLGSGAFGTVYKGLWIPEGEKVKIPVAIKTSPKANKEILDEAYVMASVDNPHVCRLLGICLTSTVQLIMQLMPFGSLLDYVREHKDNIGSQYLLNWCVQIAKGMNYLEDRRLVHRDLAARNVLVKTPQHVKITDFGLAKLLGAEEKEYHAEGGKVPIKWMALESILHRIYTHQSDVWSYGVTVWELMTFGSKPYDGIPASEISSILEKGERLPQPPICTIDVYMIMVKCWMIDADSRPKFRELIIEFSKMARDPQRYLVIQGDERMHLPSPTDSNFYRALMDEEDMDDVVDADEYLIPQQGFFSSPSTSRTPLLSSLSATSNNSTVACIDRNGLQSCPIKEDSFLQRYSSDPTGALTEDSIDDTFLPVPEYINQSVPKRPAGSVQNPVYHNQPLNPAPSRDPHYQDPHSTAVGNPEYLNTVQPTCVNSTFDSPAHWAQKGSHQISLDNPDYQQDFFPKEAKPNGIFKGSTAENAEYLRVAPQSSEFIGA
- ASSAY_PROTOCOL: Biochemical EGFR kinase inhibition assay (Lance Ultra TR-FRET), triple mutant del19/T790M/C797S
- MEASUREMENT_SETUP: IC50 Del19/T790M/C797S (nM), 100 μM ATP
ASSAY_METRIC: IC50 (nM)

# COMPOUND, IC50, nM
rows = [
    ("CN1CCN(Cc2ccc(C#Cc3cnc(Nc4ccnc(-c5cnn(S(=O)(=O)C6CC6)c5)n4)cc3N[C@H]3CC[C@@H](CO)CC3)cc2)CC1 [Example 360]", 1.1),
]

(I) CN(C)CCC1CCN(c2cc(Nc3ccnc(-c4cnn(S(=O)(=O)C5CC5)c4)n3)ncc2C#CC2CCO[C@H]2C(F)(F)F)CC1 (stereo partly drawn) [Example 419]
(II) Cn1cc(C#Cc2cnc(Nc3ccnc(-c4cnn(S(=O)(=O)C5CC5)c4)n3)cc2N2CCC(NCCC(F)(F)F)CC2)cn1 [Example 127]
Task item: Kindly compare I with II and tell me which has the lower IC50 figure. Choose, then provide that item's label.
Reply: I
